# System: LOC_OS01G60700-cb002
# Assay Notes: thermal shift delta Tm vs DMSO control; higher = stronger stabilization (binding);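 also: purified Escherichia coli-expressed rice kinase domain construct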
# Test Settings: 12.5 µM; protein concentration 2 µM
Lab note: compare thermal shift delta Tm against 0.2 °C. Equal or greater, write 1 (yes). Smaller, write 0 (no).

Identify whether the reported thermal shift delta Tm of the following compound is 0.2 °C or greater: Cc1cc(Nc2cc(CN3CCOCC3)c3nc(C)c(Cc4ccc(Cl)cc4F)n3n2)n[nH]1
0 (no)

Identify whether the reported thermal shift delta Tm of the following compound is 0.2 °C or greater: COc1cc(-c2cc(-c3ccc(N4CCNCC4)cc3)cnc2C)cc(OC)c1OC
0 (no)

Assess whether reported thermal shift delta Tm for Cc1cc2c(F)c(Oc3ncnn4cc(OC[C@@H](C)O)c(C)c34)ccc2[nH]1 sits at 0.2 °C or higher.
1 (yes)

thermal shift delta Tm >= 0.2 °C for N#Cc1c(NC(=O)c2cccc3ccccc23)sc2c1CCCC2 ?
1 (yes)

State whether the measured thermal shift delta Tm reaches 0.2 °C, counting equality as reaching it, for O=c1cc(N2CCOCC2)oc2c1ccc1ccccc12
0 (no)

* * *

I'd appreciate it if you could supply thermal shift delta Tm values for the items below.
# System: LOC_OS06G16330-cb003
# Sequence (as listed by the source): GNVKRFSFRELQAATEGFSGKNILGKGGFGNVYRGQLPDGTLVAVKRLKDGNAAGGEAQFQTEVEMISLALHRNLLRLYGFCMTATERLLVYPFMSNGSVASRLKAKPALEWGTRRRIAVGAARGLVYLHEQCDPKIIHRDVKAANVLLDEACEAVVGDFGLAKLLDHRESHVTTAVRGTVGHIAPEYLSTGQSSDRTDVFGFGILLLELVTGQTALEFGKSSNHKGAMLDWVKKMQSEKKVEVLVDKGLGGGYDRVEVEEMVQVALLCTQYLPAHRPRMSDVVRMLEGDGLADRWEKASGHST
# Assay Notes: thermal shift delta Tm vs DMSO control; higher = stronger stabilization (binding)
# Test Settings: 12.5 µM; protein concentration 2 µM
Where a name gives a salt, the structure may show the parent alone.
Provide the reading as a plain figure in °C.

# CCc1nc(C(N)=O)c(Nc2ccc(N3CCC(N4CCN(C)CC4)CC3)c(OC)c2)nc1NC1CCOCC1 with LOC_OS06G16330-cb003: thermal shift delta Tm is 15.3

Item: Nc1ccc(C(=O)Nc2cccc(-c3nc(N4CCOCC4)c4oc5ncccc5c4n3)c2)cn1 | System: LOC_OS06G16330-cb003 | thermal shift delta Tm: 0.32

# CNC(=O)c1cc(Oc2ccc(NC(=O)Nc3ccc(Cl)c(C(F)(F)F)c3)cc2)ccn1 [Sorafenib Tosylate] with LOC_OS06G16330-cb003: thermal shift delta Tm is 1.91

Entry CCN(CC)CCNC(=O)c1c(C)[nH]c(/C=C2\C(=O)Nc3ccc(F)cc32)c1C [Sunitinib Malate] , tested on LOC_OS06G16330-cb003, has a reported thermal shift delta Tm of 7.74

Reported LOC_OS06G16330-cb003 thermal shift delta Tm for item COC(=O)c1ccc2c(c1)NC(=O)/C2=C(\Nc1ccc(N(C)C(=O)CN2CCN(C)CC2)cc1)c1ccccc1 was 0.71

Per the reported LOC_OS06G16330-cb003 data, Cn1cnc2c(F)c(Nc3ccc(Br)cc3Cl)c(C(=O)NOCCO)cc21 has thermal shift delta Tm of 0.02

LOC_OS06G16330-cb003 data for CC(C)(CO)n1cc(C(=O)c2cncc(NC(=O)Cc3ccc(Cl)cn3)c2)c2cnc(N)nc21 ; its thermal shift delta Tm: 2.22

* * *

# Test system: LOC_OS07G06570-cb004
# Assay Notes: thermal shift delta Tm vs DMSO control; higher = stronger stabilization (binding)
# Test Settings: 12.5 µM; protein concentration 2 µM
Tag: y if measured thermal shift delta Tm is not below 0.8 °C, n if it is.

Does the reported thermal shift delta Tm for CCCNC(=O)Nc1ccc(Oc2ncnc3cc(OC)c(OC)cc23)cc1Cl fall at or above the 0.8 °C mark?
n

Record Cc1nc(-c2cn3c(n2)-c2ccc(-c4cnn(C(C)(C)C(N)=O)c4)cc2OCC3)n(C(C)C)n1 ; criterion: thermal shift delta Tm no lower than 0.8 °C. Met?
y

Tell me whether thermal shift delta Tm is at least 0.8 °C here: CCOc1cc(N2CCC(O)CC2)ccc1Nc1ncc2c(n1)N(C)c1ccccc1C(=O)N2C
y

Is it the case that COc1cc(Nc2ncc3c(n2)-c2ccc(Cl)cc2C(c2c(F)cccc2OC)=NC3)ccc1C(=O)O has thermal shift delta Tm reaching or exceeding 0.8 °C?
n

Is the recorded value of thermal shift delta Tm equal to or greater than 0.8 °C for this molecule? CC(C)CCN1c2nc(Nc3cc(F)c(O)c(F)c3)ncc2N(C)C(=O)C1C (stereo not drawn)
y

Answer whether thermal shift delta Tm of O=C(Nc1cccc(Nc2ncc(Br)c(NCCc3cnc[nH]3)n2)c1)N1CCCC1 is greater than or equal to 0.8 °C.
n

Evaluate O=c1nc(N2CCOCC2)oc2c(-c3cccc4c3sc3ccccc34)cccc12 : thermal shift delta Tm at minimum 0.8 °C?
n
